Entry source: patent US20120149718A1

# system: human P2X7 (Homo sapiens)
# Construct: 1321N1 cells stably expressing the full length human P2X7 gene (1321N1-hP2X7)
# Sequence (Q99572 1-595): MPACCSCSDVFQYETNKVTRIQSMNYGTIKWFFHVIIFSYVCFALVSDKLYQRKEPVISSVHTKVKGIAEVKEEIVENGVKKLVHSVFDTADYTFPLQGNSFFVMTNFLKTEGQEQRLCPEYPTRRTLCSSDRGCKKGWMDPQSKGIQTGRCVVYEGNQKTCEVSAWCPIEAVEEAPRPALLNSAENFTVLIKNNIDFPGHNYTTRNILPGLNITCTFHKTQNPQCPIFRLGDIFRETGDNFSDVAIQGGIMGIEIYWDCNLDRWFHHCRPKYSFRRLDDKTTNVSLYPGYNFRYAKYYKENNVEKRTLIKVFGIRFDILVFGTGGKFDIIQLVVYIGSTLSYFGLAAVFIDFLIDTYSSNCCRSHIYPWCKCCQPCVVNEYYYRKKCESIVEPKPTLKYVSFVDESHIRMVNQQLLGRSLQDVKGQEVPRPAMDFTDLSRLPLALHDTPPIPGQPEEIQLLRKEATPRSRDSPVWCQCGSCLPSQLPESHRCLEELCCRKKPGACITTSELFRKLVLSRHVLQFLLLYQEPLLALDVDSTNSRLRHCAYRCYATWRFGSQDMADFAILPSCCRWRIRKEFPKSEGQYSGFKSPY
# assay explanation: Intracellular Calcium Flux (FLIPR) Assay
# Assay type: cell-based
# condition context: 1321N1 cells stably expressing full length human P2X7; agonist 100 μM BzATP; fluo-3 calcium flux; read-out: FLIPR pIC50 hP2X7-1321n1 (converted)
value type: IC50 (nM)

Would you please look over these solved cases?
>>> print(df.to_string())
                                   compound  unit_descriptor  test_value
0  CS(=O)(=O)c1ccc(CC(C(=O)Nc2nc3ccccc3o2)c2ccc(F)cc2)cc1 (stereo not shown)               nM         407
1  Cc1cccc2oc(NC(=O)C(Cc3ccc(F)cc3)c3ccc(S(C)(=O)=O)cc3)nc12 (stereo not shown)               nM         468

A. CS(=O)(=O)c1ccc(C(Cc2ccc(F)cc2)C(=O)Nc2cnc(Br)cn2)cc1 (stereo not shown)
B. O=C(Nc1nc2ccccc2o1)C(Cc1ccc(F)cc1)c1ccc(F)cc1 (stereo not shown)
Exercise: # argmax over IC50 for candidates A and B Returns: label corresponding to the selected item.
Key: A

----------
# system: human P2X7 (Homo sapiens, UniProt Q99572)
# Construct: 1321N1 cells stably expressing the full length human P2X7 gene (1321N1-hP2X7)
# Sequence (Q99572 1-595): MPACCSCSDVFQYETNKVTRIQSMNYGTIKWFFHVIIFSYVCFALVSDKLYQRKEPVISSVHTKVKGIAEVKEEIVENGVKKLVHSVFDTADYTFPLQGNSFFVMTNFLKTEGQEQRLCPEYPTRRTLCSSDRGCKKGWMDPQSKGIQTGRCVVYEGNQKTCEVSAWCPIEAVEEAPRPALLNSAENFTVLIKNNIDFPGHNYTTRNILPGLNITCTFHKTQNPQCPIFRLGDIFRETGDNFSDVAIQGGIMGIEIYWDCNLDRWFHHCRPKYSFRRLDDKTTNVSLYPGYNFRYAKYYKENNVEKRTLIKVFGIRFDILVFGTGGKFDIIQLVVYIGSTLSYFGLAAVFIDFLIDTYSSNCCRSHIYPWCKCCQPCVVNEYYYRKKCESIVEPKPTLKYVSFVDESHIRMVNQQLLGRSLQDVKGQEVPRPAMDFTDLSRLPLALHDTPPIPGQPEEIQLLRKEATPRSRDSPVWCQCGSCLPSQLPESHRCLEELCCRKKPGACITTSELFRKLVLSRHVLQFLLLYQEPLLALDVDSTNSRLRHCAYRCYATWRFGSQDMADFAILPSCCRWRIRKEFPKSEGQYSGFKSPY
# assay explanation: Intracellular Calcium Flux (FLIPR) Assay
# Format: cell-based
# condition context: 1321N1 cells stably expressing full length human P2X7; agonist 100 μM BzATP; fluo-3 calcium flux; read-out: FLIPR pIC50 hP2X7-1321n1 (converted)
value type: IC50 (nM)

Would you please look over these solved cases?
                                   molecule                                    system  test_value
0  Cc1cnc(NC(=O)C(Cc2ccc(F)cc2)c2ccc(S(C)(=O)=O)cc2)cn1 (stereo not shown) [Compound I-19]  human P2X7 (Homo sapiens, UniProt Q99572)         708
1  CS(=O)(=O)c1ccc(C(Cc2ccc(F)cc2)C(=O)Nc2nc3ccc(CO)cc3o2)cc1 (stereo not shown) [Compound I-20]  human P2X7 (Homo sapiens, UniProt Q99572)        20.4
2  Cc1cc(S(C)(=O)=O)ccc1C(Cc1ccc(F)cc1)C(=O)Nc1nc2ccccc2o1 (stereo not shown) [Compound I-27]  human P2X7 (Homo sapiens, UniProt Q99572)         204
3  CSc1cnc(NC(=O)C(Cc2ccc(F)cc2)c2ccc(S(C)(=O)=O)cc2)cn1 (stereo not shown) [Compound I-14]  human P2X7 (Homo sapiens, UniProt Q99572)        1120
4  CS(=O)(=O)c1ccc(C(Cc2ccc(F)cc2)C(=O)Nc2nc3cc(S(=O)(=O)N4CCCC4)ccc3o2)cc1 (stereo not shown) [Compound I-47]  human P2X7 (Homo sapiens, UniProt Q99572)         170

1. Cc1ccccc1CC(C(=O)Nc1nc2cc(Cl)ccc2o1)c1ccc(S(C)(=O)=O)cc1 (stereo not shown) [Compound I-3]
2. CS(=O)(=O)c1ccc(C(Cc2ccncc2)C(=O)Nc2nc3ccccc3o2)cc1 (stereo not shown) [Compound I-55]
Exercise: Of 1 and 2 , which carries the smaller reported IC50 figure? Returns: label corresponding to the selected item.
Key: 2
(2: 661 nM, 1: 1170 nM)
